The measured values listed here are drawn from patent US20240148648A1.

Assay: physchem
Conditions: organic solvent or mixture
measurement.label: solubility (mg/mL)

a: CCCN1CCCC[C@H]1C(=O)Nc1c(C)cccc1C
b: CCCCN1CCCCC1C(=O)Nc1c(C)cccc1C (centres unmarked)
Q) Of the two listed items, which has the higher solubility? First: a Second: b Bench note: the answer is the label of the chosen record.
A) b
